test: Plasma concentration in C215 transfected MC38 cells implanted C57BL/6 mouse assessed as N-(5-chloro-3-hydroxypyridin-2-yl)-1-(3,5-dichlorophenyl)methanesulfonamide level at 1 mg/kg, iv dosed as cassette formulation and measured at 7 hrs after post dose by LC-MS analysis; assay type: ADME, organism-based; conditions: in vivo
assayReadout: concentration
Form entry: enter the amount, then its unit.

Check the records and state concentration for COc1cc(Cl)cnc1NS(=O)(=O)Cc1cc(Cl)cc(Cl)c1
4 nM

====

assay: Plasma concentration in C215 transfected MC38 cells implanted C57BL/6 mouse assessed as N-(5-bromo-3-hydroxypyrazin-2-yl)-1-(3,4-dichlorophenyl)methanesulfonamide level at 5 mg/kg, po dosed as cassette formulation and measured at 2 hrs after post dose by LC-MS analysis; assay type: ADME, organism-based; settings: in vivo
assayReadout: concentration (nM)
Quick reminder: number only, in nM, skip the unit.

Recall and state the measured concentration for COc1nc(Br)cnc1NS(=O)(=O)Cc1ccc(Cl)c(Cl)c1 .
800

====

assay: Plasma concentration in C215 transfected MC38 cells implanted C57BL/6 mouse assessed as N-(5-bromo-3-hydroxypyrazin-2-yl)-1-(3,4-dichlorophenyl)methanesulfonamide level at 5 mg/kg, po dosed as cassette formulation and measured at 7 hrs after post dose by LC-MS analysis; type: ADME, organism-based; settings: in vivo
assayReadout: concentration
The answer consists of two parts: a number and, after it, its unit.

Write down concentration measured for item COc1nc(Br)cnc1NS(=O)(=O)Cc1ccc(Cl)c(Cl)c1
1100 nM

====

test: Plasma concentration in C215 transfected MC38 cells implanted C57BL/6 mouse at 5 mg/kg, po dosed as cassette formulation and measured at 0.5 hrs after post dose by LC-MS analysis; assay type: ADME, organism-based
assayReadout: concentration at 0.5 h
Reply with a number, then the unit it belongs to.

{"columns": ["compoundString", "assayReadout", "value"],
 "data": [
  ["COc1nc(Br)cnc1NS(=O)(=O)Cc1ccc(Cl)c(Cl)c1", "concentration at 0.5 h", "51.7 µM"],
  ["COc1cc(Cl)ncc1NS(=O)(=O)c1cc(Cl)sc1Cl", "concentration at 0.5 h", "86.8 µM"]
]}

# return recorded concentration at 0.5 h for entry COc1cc(Cl)cnc1NS(=O)(=O)Cc1cc(Cl)cc(Cl)c1
3.6 µM

====

assay: Plasma concentration in C215 transfected MC38 cells implanted C57BL/6 mouse assessed as 2,5-dichloro-N-(6-chloro-4-hydroxypyridin-3-yl)thiophene-3-sulfonamide level at 5 mg/kg, po dosed as cassette formulation and measured at 4 hrs after post dose by LC-MS analysis; assay type: ADME, organism-based; details: in vivo
assayReadout: concentration (nM)
Quick note: give the figure in nM, leave out the unit.

# return recorded concentration for input COc1cc(Cl)ncc1NS(=O)(=O)c1cc(Cl)sc1Cl
610

====

assay: Plasma concentration in C215 transfected MC38 cells implanted C57BL/6 mouse assessed as N-(5-chloro-3-hydroxypyridin-2-yl)-1-(3,5-dichlorophenyl)methanesulfonamide level at 1 mg/kg, iv dosed as cassette formulation and measured at 1 hr after post dose by LC-MS analysis; format: ADME, organism-based; conditions: in vivo
assayReadout: concentration (nM)
Only the number, expressed in nM, is required.

For COc1cc(Cl)cnc1NS(=O)(=O)Cc1cc(Cl)cc(Cl)c1 , write its concentration.
3

====

experiment: Plasma concentration in C215 transfected MC38 cells implanted C57BL/6 mouse at 5 mg/kg, po dosed as cassette formulation and measured at 7 hrs after post dose by LC-MS analysis; format: ADME, organism-based
assayReadout: concentration at 7 h (µM)
All answers are understood in µM, so give the number only.

Known results for compounds:
{"columns": ["compoundString", "concentration at 7 h [µM]"],
 "data": [
  ["COc1cc(Cl)cnc1NS(=O)(=O)Cc1cc(Cl)cc(Cl)c1", 0.7],
  ["COc1cc(Cl)ncc1NS(=O)(=O)c1cc(Cl)sc1Cl", 50.3]
]}

From here, focus on the item given below.
Determine its reported concentration at 7 h: COc1nc(Br)cnc1NS(=O)(=O)Cc1ccc(Cl)c(Cl)c1
73.5
